yeast fitness overview
B1: tRNA (parent)
chain: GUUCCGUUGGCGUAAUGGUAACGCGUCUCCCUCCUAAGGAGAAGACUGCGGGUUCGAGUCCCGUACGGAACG

Variants of: B1
Test: yeast fitness relative to wild type (ratio to wild type); higher = fitter; tRNA-Arg(CCU), competitive growth, 37 C, YPD
Fewer inactive variants are shown than the library holds.
Write the value as a bare number.

Use these answered entries as a reference point.
C4G U8G C24A C31G G50A :: 0.594
C22G C27G :: 0.597
U19C A20U :: 0.941
C31G U53C :: 0.662
U32A G67A :: 0.766

GET /values?readout=yeast fitness&item= C22U C29U G41A G48A C62A 0.611

Here is the next variant: A21G G44C A69U 0.681

Source of measurements: the RNAGym collection of RNA variant scans (doi:10.1126/science.aae0568)
